- Test system: Salmonella typhimurium TA98
- assay_info: Ames assay, strain TA98
- cond: 10 ug/Well; with S9
readout: Mean Revertant Colony Counts TA98 SP9+

Check out these entries, answers already filled in.
{"compound": "CC(C)(C)c1ccc(O)c(C(=O)Nc2ccc(C(=O)O)cc2C(F)(F)F)c1", "endpoint_result": 6.3}
{"compound": "CC(C)(C)c1cc(C(=O)Nc2ccc(C(=O)O)cc2Cl)c(O)c(C(C)(C)C)c1", "endpoint_result": 7.7}
{"compound": "CC(C)(C)c1ccc(O)c(C(=O)Nc2cc(C(=O)O)ccc2Cl)c1", "endpoint_result": 7.7}

I have this compound here, CC(C)(C)c1ccc(O)c(C(=O)Nc2ccc(C(=O)O)cc2Cl)c1 , and I need its recorded Mean Revertant Colony Counts TA98 SP9+.
9.0

Mean Revertant Colony Counts TA98 SP9+ for O=C(Nc1ccc([N+](=O)[O-])cc1Cl)c1cc(Cl)ccc1O [Niclosamide] ?
194.7

---

- Test system: Salmonella typhimurium TA98
- assay_info: Ames assay, strain TA98
- cond: 1000 ug/Well; with S9
readout: Mean Revertant Colony Counts TA98 SP9+

Below: 2 molecules and their reported Mean Revertant Colony Counts TA98 SP9+.
{"molecule": "CC(C)(C)c1ccc(O)c(C(=O)Nc2ccc(C(=O)O)cc2Cl)c1 [Compound 500200]", "Mean Revertant Colony Counts TA98 SP9+": 4.3}
{"molecule": "CC(C)(C)c1ccc(O)c(C(=O)Nc2ccc(C(=O)O)cc2C(F)(F)F)c1 [Compound 500873]", "Mean Revertant Colony Counts TA98 SP9+": 16.3}

So what's the measured Mean Revertant Colony Counts TA98 SP9+ for this one? CC(C)(C)c1cc(C(=O)Nc2ccc(C(=O)O)cc2Cl)c(O)c(C(C)(C)C)c1 [Compound 600453]
4.0

Which Mean Revertant Colony Counts TA98 SP9+ value is on record for CC(C)(C)c1ccc(O)c(C(=O)Nc2cc(C(=O)O)ccc2Cl)c1 [Compound 600494] ?
11.3
